Test system: Streptococcus pneumoniae (ID-4444)
Assay: In vitro antibacterial activity, agar dilution MIC
Type: cell-based
Conditions: Mueller-Hinton agar, 5% sheep blood, 18 hours
Reported MIC by item:
Report only the number, with the unit µg/mL understood.

>  <Compound>
CC(C)CC(=O)OC1C(CO)OC(OC2C(CO)OC(Oc3ccc(CC4NC(=O)C(C(C)c5ccccc5)NC(=O)CNC(=O)C(CO)NC(=O)C(C(O)C5CNC(=N)N5C5OC(CO)C(O)C(O)C5O)NC(=O)C(C(O)C5CNC(=N)N5)NC4=O)cc3)C(O)C2O)C(O)C1O (centres unmarked)

>  <MIC / µg/mL>
2000

$$$$

Reported MIC ( CC(C)CC(=O)OC1C(O)C(CO)OC(OC2C(CO)OC(Oc3ccc(CC4NC(=O)C(C(C)c5ccccc5)NC(=O)CNC(=O)C(CO)NC(=O)C(C(O)C5CNC(=N)N5C5OC(CO)C(O)C(O)C5O)NC(=O)C(C(O)C5CNC(=N)N5)NC4=O)cc3)C(O)C2O)C1O (centres unmarked) ) = 4000

Reported MIC ( CC(C)CC(=O)OC1C(OC2C(CO)OC(Oc3ccc(CC4NC(=O)C(C(C)c5ccccc5)NC(=O)CNC(=O)C(CO)NC(=O)C(C(O)C5CNC(=N)N5C5OC(CO)C(O)C(O)C5O)NC(=O)C(C(O)C5CNC(=N)N5)NC4=O)cc3)C(O)C2O)OC(CO)C(O)C1O (centres unmarked) ) = 8000

---

Tested on: Micrococcus luteus (ATCC 9341)
Experiment: In vitro antibacterial activity, agar dilution MIC
Format: cell-based
Conditions: ATCC9341, Mueller-Hinton agar, 5% sheep blood, 18 hours
Numbered stars: 1 amine (or outer) side, 2 acyl side, 3 side chain; on linkers, the order of the positions; unused ones are H or OH. Square brackets hold non-standard residues; d marks the D form. Peptide text beside a SMILES is read from it. * marks the point of attachment. ξ: configuration not given here. X1 = N=C1NCC(C(O)C(N[*:1])C(=O)[*:2])N1C1OC(CO)C(O)C(O)C1O; ξEnduracididine(βξ-OH,4'ξ) = N=C1NCC(C(O)C(N)C(=O)O)N1; X2 = OCC1OC(OC2C(CO)OC(*)C(O)C2O)C(O)C(O)C1O; ξPhe(βξ-Me) = CC(c1ccccc1)C(N)C(=O)O
Reported MIC by item:
Report only the number, with the unit µg/mL understood.

Some molecules with known MIC results, for comparison:
>  <Molecule>
CC(C)CC(=O)OC1C(OC2C(CO)OC(Oc3ccc(CC4NC(=O)C(C(C)c5ccccc5)NC(=O)CNC(=O)C(CO)NC(=O)C(C(O)C5CNC(=N)N5C5OC(CO)C(O)C(O)C5O)NC(=O)C(C(O)C5CNC(=N)N5)NC4=O)cc3)C(O)C2O)OC(CO)C(O)C1O (centres unmarked)

>  <Experimental Target>
Micrococcus luteus (ATCC 9341)

>  <Unit String>
µg/mL

>  <MIC>
2000

$$$$
>  <Molecule>
CC(c1ccccc1)C1NC(=O)CNC(=O)C(CO)NC(=O)C(C(O)C2CNC(=N)N2C2OC(CO)C(O)C(O)C2O)NC(=O)C(C(O)C2CNC(=N)N2)NC(=O)C(Cc2ccc(OC3OC(CO)C(OC4OC(CO)C(O)C(O)C4O)C(O)C3O)cc2)NC1=O (stereo not drawn) [AC-98-1] (cyclo(G[ξPhe(βξ-Me)]Y(X2)[ξEnduracididine(βξ-OH,4'ξ)][X1]S); configuration not given here)

>  <Experimental Target>
Micrococcus luteus (ATCC 9341)

>  <Unit String>
µg/mL

>  <MIC>
64000

$$$$

Reported MIC ( CC(c1ccccc1)C1NC(=O)CNC(=O)C(CO)NC(=O)C(C(O)C2CNC(=N)N2C2OC(CO)C(O)C(O)C2O)NC(=O)C(C(O)C2CNC(=N)N2)NC(=O)C(Cc2ccc(O)cc2)NC1=O (stereo not drawn) [AC-98-2] (cyclo(G[ξPhe(βξ-Me)]Y[ξEnduracididine(βξ-OH,4'ξ)][X1]S); configuration not given here) ) = 16000

Reported MIC ( CC(C)CC(=O)OC1C(CO)OC(OC2C(CO)OC(Oc3ccc(CC4NC(=O)C(C(C)c5ccccc5)NC(=O)CNC(=O)C(CO)NC(=O)C(C(O)C5CNC(=N)N5C5OC(CO)C(O)C(O)C5O)NC(=O)C(C(O)C5CNC(=N)N5)NC4=O)cc3)C(O)C2O)C(O)C1O (centres unmarked) ) = 1000

Reported MIC ( CC(C)CC(=O)OC1C(O)C(CO)OC(OC2C(CO)OC(Oc3ccc(CC4NC(=O)C(C(C)c5ccccc5)NC(=O)CNC(=O)C(CO)NC(=O)C(C(O)C5CNC(=N)N5C5OC(CO)C(O)C(O)C5O)NC(=O)C(C(O)C5CNC(=N)N5)NC4=O)cc3)C(O)C2O)C1O (centres unmarked) ) = 2000
